Experimental Target: recombinant human IL-6 (human, UniProt P05231 30-212)
Sequence (P05231 30-212 limits assumed): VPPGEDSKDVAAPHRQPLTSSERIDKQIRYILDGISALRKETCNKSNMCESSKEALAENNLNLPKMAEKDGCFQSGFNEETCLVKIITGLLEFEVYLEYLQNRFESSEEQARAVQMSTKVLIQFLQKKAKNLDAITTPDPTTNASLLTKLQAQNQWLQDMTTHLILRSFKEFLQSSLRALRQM
Protocol Text: SPR, IL-6 on CM5 chip, Fab lysate, 25 C

Binder	koff (s⁻¹)
anti-IL-6 Fab, heavy chain S30G (Fab, V domains shown, see m39) VH: EVQLVESGGGLVQPGGSLRLSCAASGFTFGPFAMSWVRQAPGKGLEWVAKISPGGSWTYYSDTVTGRFTFSLDTSKSTAYLQMNSLRAEDTAVYYCARQLWGYYALDIWGQGTLVTVSS VL: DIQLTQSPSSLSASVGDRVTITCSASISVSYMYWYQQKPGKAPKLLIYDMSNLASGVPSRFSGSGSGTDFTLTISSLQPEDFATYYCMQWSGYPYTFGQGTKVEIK	0.00377
anti-IL-6 Fab, light chain T96V (Fab, V domains shown, see m39) VH: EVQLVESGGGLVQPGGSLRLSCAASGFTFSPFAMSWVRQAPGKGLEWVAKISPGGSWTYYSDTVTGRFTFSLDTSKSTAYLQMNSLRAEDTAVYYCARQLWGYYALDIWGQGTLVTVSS VL: DIQLTQSPSSLSASVGDRVTITCSASISVSYMYWYQQKPGKAPKLLIYDMSNLASGVPSRFSGSGSGTDFTLTISSLQPEDFATYYCMQWSGYPYVFGQGTKVEIK	0.00504
anti-IL-6 Fab, heavy chain V48L (Fab, V domains shown, see m39) VH: EVQLVESGGGLVQPGGSLRLSCAASGFTFSPFAMSWVRQAPGKGLEWLAKISPGGSWTYYSDTVTGRFTFSLDTSKSTAYLQMNSLRAEDTAVYYCARQLWGYYALDIWGQGTLVTVSS VL: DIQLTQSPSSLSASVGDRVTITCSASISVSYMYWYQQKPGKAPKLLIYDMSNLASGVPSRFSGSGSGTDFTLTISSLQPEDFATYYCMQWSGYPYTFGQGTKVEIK	0.00517
anti-IL-6 Fab, heavy chain T28K (Fab, V domains shown, see m39) VH: EVQLVESGGGLVQPGGSLRLSCAASGFKFSPFAMSWVRQAPGKGLEWVAKISPGGSWTYYSDTVTGRFTFSLDTSKSTAYLQMNSLRAEDTAVYYCARQLWGYYALDIWGQGTLVTVSS VL: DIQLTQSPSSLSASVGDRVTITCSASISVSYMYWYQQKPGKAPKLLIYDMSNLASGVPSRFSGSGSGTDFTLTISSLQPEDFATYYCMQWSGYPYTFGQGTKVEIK	0.00408
anti-IL-6 Fab, heavy chain I108F (Fab, V domains shown, see m39) VH: EVQLVESGGGLVQPGGSLRLSCAASGFTFSPFAMSWVRQAPGKGLEWVAKISPGGSWTYYSDTVTGRFTFSLDTSKSTAYLQMNSLRAEDTAVYYCARQLWGYYALDFWGQGTLVTVSS VL: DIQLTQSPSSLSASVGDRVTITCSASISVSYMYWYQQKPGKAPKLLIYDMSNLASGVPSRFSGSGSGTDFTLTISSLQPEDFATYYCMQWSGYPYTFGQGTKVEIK	0.0034
